- Test system: Alopecurus myosuroides (ALOMY)
- METHOD_NOTES: Test Example 1 post-emergence herbicidal activity
- Assay type: in vivo
- PARTICULARS: 360 h, rate 125 g/ha, evaluated 15 days later, read-out: Post-emergence activity ALOMY (100=total damage to plant; 0=no damage to plant)
RECORDED_ENDPOINT: pest or weed control at 125 g/ha (%)
Quick note: give the figure in %, leave out the unit.

Past entries and their recorded results:
CCc1cc(C)cc(CC)c1C1=C(OC(=O)C(C)(C)C)[C@H]2[C@@H](C1=O)[C@@H]1CC[C@H]2O1 (racemic) [Example P14] :: 90
Cc1cc(C)c(C2=C(O)[C@@H]3[C@@H]4O[C@@H](C[C@H]4c4ccc(F)nc4)[C@@H]3C2=O)c(C)c1 [Example T129] :: 80
CCc1cc(C)cc(CC)c1C1=C(O)[C@H]2[C@@H](C1=O)[C@@H]1C=C(C#C[Si](C)(C)C)[C@H]2O1 (racemic) [Example T11] :: 40

In: I have this compound here, CCc1cc(C)cc(CC)c1C1=C(O)[C@@H]2[C@@H]3O[C@@H](C[C@H]3c3ccc(Cl)cc3)[C@@H]2C1=O [Example T155] , and I need its recorded pest or weed control at 125 g/ha.
Out: 90

In: Moving on to the next compound: CCc1cc(C)cc(CC)c1C1=C(O)[C@@H]2[C@@H]3O[C@@H](C[C@H]3c3ccc(OC(F)(F)F)cc3)[C@@H]2C1=O (racemic) [Example T159]
Out: 90

In: Moving on to the next compound: Cc1cc(C)c(C2=C(O)[C@H]3[C@@H](C2=O)[C@@H]2C=C[C@@]3(CO)O2)c(C)c1 (racemic) [Example T37]
Out: 50

In: Moving on to the next compound: Cc1ccc([C@@H]2C[C@@H]3O[C@H]2[C@H]2C(O)=C(c4c(C)cc(C)cc4C)C(=O)[C@H]23)cc1 (racemic) [Example T71]
Out: 50

In: Moving on to the next compound: CCc1cc(C)cc(CC)c1C1=C(O)[C@@H]2[C@@H]3O[C@@H](C[C@H]3c3ccc(C(C)=O)cc3)[C@@H]2C1=O [Example T171]
Out: 70

In: Moving on to the next compound: CCc1cc(C)cc(CC)c1C1=C(O)[C@@H]2[C@@H]3O[C@@H](C[C@H]3c3cccc(C)c3)[C@@H]2C1=O [Example T179]
Out: 80

In: Moving on to the next compound: CCc1cc(C)cc(CC)c1C1=C(OC(=O)C2CC2)[C@H]2[C@@H](C1=O)[C@@H]1CC[C@H]2O1 (racemic) [Example P21]
Out: 90

Values compiled from patent US8754242B2.
